test system: OVCAR-3 ovarian; assay: NCI tumour cell line growth inhibition, 48 h
Assay Endpoint: TGI

// compound `COC(=O)c1ccc(N=NN(C)COc2ccc(Br)cc2)cc1` , assay OVCAR-3 ovarian, TGI value: > 100 µM

// compound CN1C(=O)C2C3C=C4c5ccccc5N(c5ccccc5)C4(C2C1=O)[C@H]1C(=O)N(C)C(=O)[C@@H]31 (stereo not given in full) , assay OVCAR-3 ovarian, TGI value: > 100 µM

// compound O=C(Nc1ccc2[nH]c(C(=O)N3CC(CCl)c4c3cc([N+](=O)[O-])c3ccccc43)cc2c1)Nc1ccc2[nH]c(C(=O)N3CC(CCl)c4c3cc([N+](=O)[O-])c3ccccc43)cc2c1 (stereo not given) , assay OVCAR-3 ovarian, TGI value: > 100 µM

// compound C/C(CC(O)(/C=N/O)c1ccccc1)=N/O (stereo not given) , assay OVCAR-3 ovarian, TGI value: > 100 µM

// compound `CN(/N=C/c1cccc2cccnc12)c1ccc(Cl)cc1[N+](=O)[O-]` , assay OVCAR-3 ovarian, TGI value: > 100 µM

// compound `O=c1[nH]nc(-c2ccccc2)n1/N=C/c1cccs1` , assay OVCAR-3 ovarian, TGI value: > 100 µM

// compound CC1CCCC(C(O)CC2CC(=O)NC(=O)C2)C1O (stereo not given) , assay OVCAR-3 ovarian, TGI value: > 100 µM

// compound COc1cc(C2c3cc4c(cc3OC(NNS(=O)(=O)c3ccc(C)cc3)C2C)OCO4)cc(OC)c1O (stereo not given) , assay OVCAR-3 ovarian, TGI value: 50 µM

// compound `C[n+]1c2cc(N)ccc2cc2ccc(N)cc21` , assay OVCAR-3 ovarian, TGI value: 7.45 µM [middle of 4 runs]

// compound `O=c1ccn(COC(COCc2ccccc2)COCc2ccccc2)c(=O)[nH]1` , assay OVCAR-3 ovarian, TGI value: > 100 µM

Hey, just so you know, these numbers are from PubChem BioAssay (NCI).
